# Tested on: Nakaseomyces glabratus
# test.method.notes: Antifungal activity against Candida glabrata ATCC 15126 assessed as growth inhibition zone at 50 ug after 24 hrs by Kirby-Bauer agar diffusion assay
# Type: functional
# condition: ATCC 15126, 24 h, read-out: IZ
Everything with zone of inhibition at 50 µg/disc lower than 20 mm is class 0; everything else, including exactly 20 mm, is class 1.

smiles_input=CO[C@H]1C(=O)N(SC)[C@H]1c1cccc(F)c1 label="class 0"
smiles_input=CO[C@H]1C(=O)N(SC)[C@H]1c1ccc(I)cc1 label="class 1"
smiles_input=CO[C@H]1C(=O)N(SC)[C@H]1c1cccc(I)c1 label="class 0"
smiles_input=CO[C@H]1C(=O)N(SC)[C@H]1c1cc(F)c(F)cc1F label="class 0"
smiles_input=CO[C@H]1C(=O)N(SC)[C@H]1c1ccccc1Br label="class 0"
